# Test System: glucagon receptor (Mus musculus, UniProt Q61606)
# Sequence (Q61606 27-485): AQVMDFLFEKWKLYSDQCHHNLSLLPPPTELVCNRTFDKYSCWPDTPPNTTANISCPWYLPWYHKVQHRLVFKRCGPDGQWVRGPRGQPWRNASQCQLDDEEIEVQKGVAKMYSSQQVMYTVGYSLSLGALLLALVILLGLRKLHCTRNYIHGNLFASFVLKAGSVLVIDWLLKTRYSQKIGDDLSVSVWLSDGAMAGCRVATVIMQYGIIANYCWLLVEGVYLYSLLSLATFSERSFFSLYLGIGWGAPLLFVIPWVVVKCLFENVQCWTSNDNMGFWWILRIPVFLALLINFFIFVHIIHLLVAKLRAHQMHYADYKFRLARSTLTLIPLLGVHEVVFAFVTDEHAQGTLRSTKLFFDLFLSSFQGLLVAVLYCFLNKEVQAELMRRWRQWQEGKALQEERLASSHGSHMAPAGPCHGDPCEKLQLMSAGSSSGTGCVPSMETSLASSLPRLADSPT
# Experiment Description: Experiment for glucagon binding inhibition, mouse hepatic membrane (125I-glucagon)
# Reported Conditions: male ddY mouse hepatic membrane, 125I-glucagon 50 pM, 25° C. for 30 minutes; read-out: Glucagon binding inhibitory activity IC50 (nM) Mouse
Observable: IC50 (nM)

Consider the reported IC50 for these compounds:
{"Compound": "N#Cc1cc(C(=O)NNC(=O)c2occ(COCc3ccccc3)c2-c2ccccc2)ccc1O [Example 56]", "Display Unit": "nM", "IC50": 220}
{"Compound": "CC(C)c1cccc(-c2ccoc2C(=O)NNC(=O)c2ccc(O)c([N+](=O)[O-])c2)c1 [Example 152]", "Display Unit": "nM", "IC50": 250}
{"Compound": "COc1ccc(COc2cccc(-c3ccoc3C(=O)NNC(=O)c3ccc(O)c([N+](=O)[O-])c3)c2)cn1 [Example 164]", "Display Unit": "nM", "IC50": 6.5}
{"Compound": "CCCCCCOc1cccc(-c2ccoc2C(=O)NNC(=O)c2ccc(O)c([N+](=O)[O-])c2)c1 [Example 184]", "Display Unit": "nM", "IC50": 59}
{"Compound": "Cc1ccc(COc2cccc(-c3ccoc3C(=O)NNC(=O)c3ccc(O)c([N+](=O)[O-])c3)c2)cc1 [Example 126]", "Display Unit": "nM", "IC50": 15}

P. Cc1cc(C)c(C)c(COc2cccc(-c3ccoc3C(=O)NNC(=O)c3ccc(O)c(C#N)c3)c2)c1C [Example 1]
Q. O=C(NNC(=O)c1occc1-c1cccc(OCc2ccccc2)c1)c1ccc(O)c([N+](=O)[O-])c1 [Example 101]
Query block: Given the two records P and Q , choose the one whose IC50 value is lower. The response must carry the label of the picked entry.
Result block: Q
